Parameter EC50: see the listing below.
target: ADP-sugar pyrophosphatase (Homo sapiens, UniProt Q9UKK9); parameters: species or system HEK293
outcome_measure: EC50

smiles_structure: CC#CC(=O)N1CCC[C@H]1c1nc(-c2ccc(C(=O)Nc3ccccn3)cc2)c2c(N)nccn12
measured: > 10 µM

smiles_structure: CC#CC(=O)N[C@H]1CCCN(c2c(F)cc(C(N)=O)c3[nH]c(C)c(C)c23)C1
measured: > 10 µM

smiles_structure: C=CC(=O)N1CCC[C@@H](n2nc(-c3ccc(Oc4ccccc4)cc3)c3c(N)ncnc32)C1
measured: 1.23 µM

Origin of the recorded values: ChEMBL document CHEMBL5506016
